Tested on: PXR:RXRa (NR concentration 270 nM, RXRa partner concentration 90 nM)
Experiment: PBM binding z-score (relative to random genomic background probes); higher = stronger binding; sequences stand for … in GC…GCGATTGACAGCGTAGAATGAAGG
recorded-endpoint: PBM binding z-score
Hey, just send me the number, nothing else.

Guide cases for PBM binding z-score, answers given:
Looking up "CCTACCAGGCCAGGGTCACTCAAGCATTTCGCTT" , I see its PBM binding z-score listed as 2.39

Record "CTACCAAGGTGAACAAGGTCTTTGATTACTATTC" . Reported PBM binding z-score: 0.752

The sequence listed as "ATATGTAGGTTACATCCCGGTCATTCAGGCTATG" has a reported PBM binding z-score of 1.39

response.value for "TTACCAAGGCGAGCTGAGGTCGTTGATCCAACTC" (field: PBM binding z-score) = 1.71

More entries:
The reported PBM binding z-score of the sequence "CCTAGTAGGCCAGGGTCACTCAAGCATTTCGCTT" was 2.55

Per the record, "AGTCAAAGTTCAAGACGAGGTAACGTAAAGCACG" has PBM binding z-score of 4.49

Reported PBM binding z-score for "ATATGTTGGTTATCGGGTCATTCAGTTTGCGCAT" was 3.49
